// provenance: PubChem BioAssay (NCI)

# Tested on: U251 CNS
# measurement-protocol: NCI-60 one-dose screen, 48 h (100 = growth as untreated, 0 = no growth, -100 = all killed)
# assay-setup: 10 µM unless noted
Compounds without any hit were thinned out: in the full panel of roughly 83,000, 20% have a hit.
Recorded growth, one value per entry.
Number in %, nothing else.

>>> observed_measurement("O=C(O)c1ccc(-c2nn(-c3ccc(C(F)(F)F)cc3)cc2CNc2ccc(Oc3ccccc3)cc2)cc1")
67

// recorded growth for C=CC(=O)N[C@@H](/C=C/C(=O)OCC)Cc1ccc(-c2cc(Cl)cc(Cl)c2)cc1 : 20.2

// recorded growth for CCOC(=O)c1cc(C(=O)c2ccc(OC)cc2)n2ccc(/C=C/c3cc[n+](CC(=O)c4ccc(OC)cc4)cc3)cc12 : 53.5

// recorded growth for CN1CCN(CCNc2nccc(-c3c(-c4cccc(O)c4)nc4sccn34)n2)S1(=O)=O : 94.2

// recorded growth for Cc1ccc(-n2cc(-c3ccccc3)c3c2N=NN2CCN=C32)cc1 : 99.1

// recorded growth for CCCC/C=N/NC(=S)NCc1ccccc1 : 97.1

// recorded growth for COc1ccc(-c2cnc3c(-c4cccc5cnccc45)cnn3c2)cc1 : 56.3
